- TESTED TARGET: Cathepsin B (Bos taurus)
- EXPERIMENTAL DETAILS: Cathepsin B KI (Table 1B(ii))
- Type: biochemical
- STUDY CONDITIONS: read-out: KI CathB
I'd appreciate it if you could supply Ki values for the items below.
Numbers only, in nM.

Field: example entries. Status: answers known.
COMPOUND	Ki / nM
CCC(NC(=O)C(CC(C)C)NC(=O)OCc1ccccc1)C(=O)C(=O)NCC(C)C (stereo not drawn)	4000
CCNC(=O)C(=O)[C@H](CC)NC(=O)[C@H](CC(C)C)NC(=O)OCc1ccccc1	2400

Now, please, on to the next compound.
Give Ki for the following compound: CCC(NC(=O)C(CC(C)C)NC(=O)OCc1ccccc1)C(=O)C(=O)NCc1ccccc1 (stereo not drawn)
2000

---

A set of compounds tested on PP Elastase (Sus scrofa), with measured pKi:
Give bare numbers, as −log10 of the molar value.

COMPOUND	pKi
CCCCOC(=O)C(=O)C(CC)NC(=O)C(CC(C)C)NC(=O)OCc1ccccc1 (stereo not shown)	4.60

Now, please, on to the next compound.
Give pKi for the following compound: CCCCC(NC(=O)C(CC(C)C)NC(=O)OCc1ccccc1)C(=O)C(=O)OCC (stereo not shown)
5.66

---

- TESTED TARGET: Calpain II
- EXPERIMENTAL DETAILS: Calpain II KI (Table 1B(ii))
EXPERIMENTAL ENDPOINT: pKi
Give bare numbers, as −log10 of the molar value.

Field: example entries. Status: answers known.
MOLECULE	EXPERIMENTAL ENDPOINT	READOUT VALUE
CCOC(=O)C(=O)C(Cc1ccccc1)NC(=O)C(CC(C)C)NC(=O)OCc1ccccc1 (stereo not drawn) [Z-Leu-Phe-COOEt]	pKi	6.40
CC(C)C[C@H](NC(=O)OCc1ccccc1)C(=O)N[C@@H](Cc1ccccc1)C(=O)C(=O)NCCc1ccccc1 [Z-Leu-Phe-CONH(CH2)2 Ph, Z-Leu-Phe-CONH-(CH2)2 Ph]	pKi	7.62
CC[C@H](NC(=O)[C@H](CC(C)C)NC(=O)OCc1ccccc1)C(=O)C(=O)NCCCN1CCOCC1 [Z-Leu-Abu-CONH-(CH2)3 -Mpl, Z-Leu-Abu-CONH--(CH2)3 -N(CH2 CH2)2 O]	pKi	7.39
CCC(NC(=O)C(CC(C)C)NC(=O)OCc1ccccc1)C(=O)C(=O)NCc1ccccc1 (stereo not drawn) [Z-Leu-Abu-CONHBz, Z-Leu-Abu-CONH-Bzl]	pKi	6.46
CC(C)CC(NC(=O)OCc1ccccc1)C(=O)NC(Cc1ccccc1)C(=O)C(=O)O (stereo not drawn) [Z-Leu-Phe-COOH]	pKi	8.24

// each listed molecule needs a value for pKi
1. CCCC(NC(=O)[C@H](CC(C)C)NC(=O)OCc1ccccc1)C(=O)C(=O)OCC (mixture of isomers) [Z-Leu-Nva-COOEt, Z-Leu-DL-Nva-COOEt]
2. CCC(NC(=O)C(CC(C)C)NC(=O)OCc1ccccc1)C(=O)C(=O)NCCO (stereo not drawn) [Z-Leu-Abu-CONH-(CH2)2 OH]
3. CCCCNC(=O)C(=O)C(Cc1ccccc1)NC(=O)C(CC(C)C)NC(=O)OCc1ccccc1 (stereo not drawn) [Z-Leu-Phe-CONHnBu, Z-Leu-Phe-CONH-nBu]
4. CCC(NC(=O)C(CC(C)C)NC(=O)OCc1ccccc1)C(=O)C(=O)O (stereo not drawn) [Z-Leu-Abu-COOH]
5. CCCCCCCCNC(=O)C(=O)[C@H](CC)NC(=O)[C@H](CC(C)C)NC(=O)OCc1ccccc1 [Z-Leu-Abu-CONH-(CH2)7 CH3, Z-Leu-Abu-CONH--(CH2)7 CH3]

1. 5.92
2. 7.11
3. 7.55
4. 7.66
5. 7.72
